Tested on: HCV (J399E)
Test: microbe, parasite or virus in culture
Format: cell-based, Hepatitis C Virus
Settings: anti-HCV, Huh7.5.1 cells
Measured SI (bioactivity selective index) accompanies every entry in the list below.
# respond with the number and nothing more

> print(dat)
                                   compound  value.observed
1  CC(C)(O)Cc1sc(-c2nccs2)nc1C(=O)NCc1ccc(F)cc1             6.3

From here, focus on the item given below.
Lab entry: HCV (J399E) assay, compound CC(C)=Cc1sc(-c2ncc(C)s2)nc1C(=O)NCc1ccc(F)cc1 , SI (bioactivity selective index) = 3.8

====

Test: Cytotoxicity on HepG2.2.15 cells (MTT assay)
Assay type: cell-based, Human
Settings: human, read-out: CC50 (concentration at which 50% of cells was killed)
molecules and their reported CC50 at 6 days

In the examples that follow, each entry is paired with its recorded CC50 at 6 days.
> print(dat)
                                   molecule          metric  value.observed
1  CC(C)=Cc1sc(-c2ncc(C)s2)nc1C(=O)NCc1ccc(F)cc1  CC50 at 6 days        > 100 µM
2  CC(C)C(F)c1sc(-c2nccs2)nc1C(=O)NCc1ccc(F)cc1 (stereo not shown)  CC50 at 6 days       > 33.3 µM
3  CC(CO)Cc1sc(-c2nccs2)nc1C(=O)NCc1ccc(F)cc1 (stereo not shown)  CC50 at 6 days        > 100 µM

Now take the following molecule into account.
Please fill in: CC50 at 6 days reported for CC(C)(O)Cc1sc(-c2nccs2)nc1C(=O)NCc1ccc(F)cc1 = > 100 µM

====

System: HepG2.2.15 cells
Assay: Cytotoxicity on HepG2.2.15 cells (MTT assay)
Assay type: cell-based, Human
Conditions: read-out: CC50 (concentration at which 50% of cells was killed)
metric: CC50

The compound identified as CC(C)Cc1sc(-c2nccs2)nc1C(=O)NCc1ccc(F)cc1 [Compound W28F, reference compound] registered its CC50 at > 33.3 µM

====

Tested on: HCV (J399E)
Assay: microbe, parasite or virus in culture
Type: cell-based, Hepatitis C Virus
Conditions: anti-HCV, Huh7.5.1 cells
metric: SI (bioactivity selective index)

> print(dat)
                                   compound  value.observed
1  CC(C)C(F)c1sc(-c2nccs2)nc1C(=O)NCc1ccc(F)cc1 (centres unmarked)             5.5
2  C/C(=C\c1sc(-c2nccs2)nc1C(=O)NCc1ccc(F)cc1)CF            13.0
3  Cc1cnc(-c2nc(C(=O)NCc3ccc(F)cc3)c(C(F)C(C)C)s2)s1 (centres unmarked)           >15.2
4  C/C(=C\c1sc(-c2nccs2)nc1C(=O)NCc1ccc(F)cc1)CO            11.6

Item: CC(CO)Cc1sc(-c2nccs2)nc1C(=O)NCc1ccc(F)cc1 (centres unmarked) | SI (bioactivity selective index): 2.8
